Where do these numbers come from? They come from paper PMC7899551.

# PROTOCOL_TEXT: Plasma pharmacokinetics of Z-endoxifen (HPLC assay, non-compartmental analysis)
# Type: in vivo, human
# MEASUREMENT_SETUP: human, plasma, po, 360 mg, HCl salt, 360 mg oral, day 2 (after free base on day 1), mean of patients 35 and 36; read-out: AUC(0–24 h), Mean
QUANTITY: AUC(0-t) (ng·h/mL)

[[record]]
compound = "CC/C(=C(\\c1ccc(O)cc1)c1ccc(OCCNC)cc1)c1ccccc1 [Z-endoxifen]"
obs_value = 41600


====

# PROTOCOL_TEXT: Plasma pharmacokinetics of Z-endoxifen (HPLC assay, non-compartmental analysis)
# Type: in vivo, human
# MEASUREMENT_SETUP: human, plasma, po, 20 mg, DL1 20 mg oral, day 1, mean; read-out: C24h, Mean
QUANTITY: concentration at 24 h

[[record]]
molecule = "CC/C(=C(\\c1ccc(O)cc1)c1ccc(OCCNC)cc1)c1ccccc1 [Z-endoxifen]"
quantity = "concentration at 24 h"
obs_value = "30.2 ng/mL"


====

# PROTOCOL_TEXT: Plasma pharmacokinetics of Z-endoxifen (HPLC assay, non-compartmental analysis)
# Type: in vivo, human
# MEASUREMENT_SETUP: human, plasma, po, 140 mg/day, DL5 140 mg/day oral, day 28, individual patients; read-out: AUC(0-24h)
# Experimental: This was an open-label trial of Z-endoxifen in patients with advanced solid tumors (https://clinicaltrials.gov/ identifier: NCT01273168). […] Plasma and urine concentrations of Z- and E-endoxifen were measured using a validated, post-column fluorescence derivatization HPLC assay. Non-compartmental pharmacokinetic parameters were calculated using WinNonlin version 7.0 (Pharsight Corp., Mountainview, CA, USA). […] The amount of Z-endoxifen excreted in urine was measured over a 24-hour collection period.
QUANTITY: AUC(0-t) (ng·h/mL)

[[record]]
compound = "CC/C(=C(\\c1ccc(O)cc1)c1ccc(OCCNC)cc1)c1ccccc1 [Z-endoxifen]"
result_unit = "ng·h/mL"
obs_value = 18200


====

# PROTOCOL_TEXT: Plasma pharmacokinetics of Z-endoxifen (HPLC assay, non-compartmental analysis)
# Format: in vivo, human
# MEASUREMENT_SETUP: human, plasma, po, 100 mg/day, DL4 100 mg/day oral, day 28, individual patients; read-out: AUC(0-24h)
QUANTITY: AUC(0-t) (ng·h/mL)

[[record]]
molecule = "CC/C(=C(\\c1ccc(O)cc1)c1ccc(OCCNC)cc1)c1ccccc1 [Z-endoxifen]"
quantity = "AUC(0-t)"
result_unit = "ng·h/mL"
obs_value = 13300


====

# PROTOCOL_TEXT: Plasma pharmacokinetics of Z-endoxifen (HPLC assay, non-compartmental analysis)
# Type: in vivo, human
# MEASUREMENT_SETUP: human, plasma, po, 200 mg, DL6 200 mg oral, day 1, mean; read-out: AUC(0-24h), Mean
QUANTITY: AUC(0-t) (ng·h/mL)

[[record]]
molecule = "CC/C(=C(\\c1ccc(O)cc1)c1ccc(OCCNC)cc1)c1ccccc1 [Z-endoxifen]"
quantity = "AUC(0-t)"
obs_value = 9220


====

# PROTOCOL_TEXT: Plasma pharmacokinetics of Z-endoxifen (HPLC assay, non-compartmental analysis)
# Assay type: in vivo, human
# MEASUREMENT_SETUP: human, plasma, oral, 20 mg, DL1; calculated from C24h in ng/mL; read-out: Plasma concentration 24 hours after the first dose
# Procedure: This was an open-label trial of Z-endoxifen in patients with advanced solid tumors (https://clinicaltrials.gov/ identifier: NCT01273168). […] Plasma and urine concentrations of Z- and E-endoxifen were measured using a validated, post-column fluorescence derivatization HPLC assay. Non-compartmental pharmacokinetic parameters were calculated using WinNonlin version 7.0 (Pharsight Corp., Mountainview, CA, USA). […] The amount of Z-endoxifen excreted in urine was measured over a 24-hour collection period.
QUANTITY: concentration at 24 h (nM)

[[record]]
compound = "CC/C(=C(\\c1ccc(O)cc1)c1ccc(OCCNC)cc1)c1ccccc1 [Z-endoxifen]"
obs_value = 67


====

# PROTOCOL_TEXT: Plasma pharmacokinetics of Z-endoxifen (HPLC assay, non-compartmental analysis)
# Format: in vivo, human
# MEASUREMENT_SETUP: human, plasma, po, 20 mg/day, DL1 20 mg/day oral, day 28, mean; read-out: Cmax, Mean
QUANTITY: Cmax (ng/mL)

[[record]]
molecule = "CC/C(=C(\\c1ccc(O)cc1)c1ccc(OCCNC)cc1)c1ccccc1 [Z-endoxifen]"
quantity = "Cmax"
result_unit = "ng/mL"
obs_value = 286


====

# PROTOCOL_TEXT: Plasma pharmacokinetics of Z-endoxifen (HPLC assay, non-compartmental analysis)
# Type: in vivo, human
# MEASUREMENT_SETUP: human, plasma, po, 60 mg, DL3 60 mg oral, day 1, mean; read-out: Tmax, Mean
QUANTITY: Tmax

[[record]]
compound = "CC/C(=C(\\c1ccc(O)cc1)c1ccc(OCCNC)cc1)c1ccccc1 [Z-endoxifen]"
obs_value = "12 h"


====

# PROTOCOL_TEXT: Plasma pharmacokinetics of Z-endoxifen (HPLC assay, non-compartmental analysis)
# Format: in vivo, human
# MEASUREMENT_SETUP: human, plasma, po, 280 mg, DL7 280 mg oral, day 1, mean; read-out: Cmax, Mean
QUANTITY: Cmax (ng/mL)

[[record]]
molecule = "CC/C(=C(\\c1ccc(O)cc1)c1ccc(OCCNC)cc1)c1ccccc1 [Z-endoxifen]"
obs_value = 930


====

# PROTOCOL_TEXT: Plasma pharmacokinetics of Z-endoxifen (HPLC assay, non-compartmental analysis)
# Type: in vivo, human
# MEASUREMENT_SETUP: human, plasma, po, 360 mg, DL8 360 mg oral, day 1, individual patients; read-out: Tmax
QUANTITY: Tmax (h)

[[record]]
compound = "CC/C(=C(\\c1ccc(O)cc1)c1ccc(OCCNC)cc1)c1ccccc1 [Z-endoxifen]"
quantity = "Tmax"
obs_value = 2


====

# PROTOCOL_TEXT: Plasma pharmacokinetics of Z-endoxifen (HPLC assay, non-compartmental analysis)
# Format: in vivo, human
# MEASUREMENT_SETUP: human, plasma, po, 360 mg, DL8 360 mg oral, day 1, mean (excluding patients 35 and 36); read-out: C24h, Mean
# Method: This was an open-label trial of Z-endoxifen in patients with advanced solid tumors (https://clinicaltrials.gov/ identifier: NCT01273168). […] Plasma and urine concentrations of Z- and E-endoxifen were measured using a validated, post-column fluorescence derivatization HPLC assay. Non-compartmental pharmacokinetic parameters were calculated using WinNonlin version 7.0 (Pharsight Corp., Mountainview, CA, USA). […] The amount of Z-endoxifen excreted in urine was measured over a 24-hour collection period.
QUANTITY: concentration at 24 h (ng/mL)

[[record]]
compound = "CC/C(=C(\\c1ccc(O)cc1)c1ccc(OCCNC)cc1)c1ccccc1 [Z-endoxifen]"
obs_value = 676


====

# PROTOCOL_TEXT: Plasma pharmacokinetics of Z-endoxifen (HPLC assay, non-compartmental analysis)
# Assay type: in vivo, human
# MEASUREMENT_SETUP: human, plasma, po, 20 mg/day, DL1 20 mg/day oral, day 28, mean; read-out: AUC(0-24h), Mean
QUANTITY: AUC(0-t) (ng·h/mL)

[[record]]
compound = "CC/C(=C(\\c1ccc(O)cc1)c1ccc(OCCNC)cc1)c1ccccc1 [Z-endoxifen]"
quantity = "AUC(0-t)"
obs_value = 4250


====

# PROTOCOL_TEXT: Plasma pharmacokinetics of Z-endoxifen (HPLC assay, non-compartmental analysis)
# Format: in vivo, human
# MEASUREMENT_SETUP: human, plasma, po, 20 mg, DL1 20 mg oral, day 1, mean; read-out: Tmax, Mean
QUANTITY: Tmax (h)

[[record]]
molecule = "CC/C(=C(\\c1ccc(O)cc1)c1ccc(OCCNC)cc1)c1ccccc1 [Z-endoxifen]"
obs_value = 3.7


====

# PROTOCOL_TEXT: Plasma pharmacokinetics of Z-endoxifen (HPLC assay, non-compartmental analysis)
# Format: in vivo, human
# MEASUREMENT_SETUP: human, plasma, po, 280 mg, DL7 280 mg oral, day 1, mean; read-out: AUC(0-24h), Mean
QUANTITY: AUC(0-t) (ng·h/mL)

[[record]]
molecule = "CC/C(=C(\\c1ccc(O)cc1)c1ccc(OCCNC)cc1)c1ccccc1 [Z-endoxifen]"
quantity = "AUC(0-t)"
result_unit = "ng·h/mL"
obs_value = 15000


====

# PROTOCOL_TEXT: Plasma pharmacokinetics of Z-endoxifen (HPLC assay, non-compartmental analysis)
# Format: in vivo, human
# MEASUREMENT_SETUP: human, plasma, po, 140 mg/day, DL5 140 mg/day oral, day 28, mean; read-out: Cmax, Mean
QUANTITY: Cmax (ng/mL)

[[record]]
compound = "CC/C(=C(\\c1ccc(O)cc1)c1ccc(OCCNC)cc1)c1ccccc1 [Z-endoxifen]"
result_unit = "ng/mL"
obs_value = 1110

